Taken from PubChem BioAssay AID1209.

# STUDY_TARGET: Mannose-6-phosphate isomerase (Homo sapiens) (UniProt P34949)
# Sequence (P34949 whole entry, looked up): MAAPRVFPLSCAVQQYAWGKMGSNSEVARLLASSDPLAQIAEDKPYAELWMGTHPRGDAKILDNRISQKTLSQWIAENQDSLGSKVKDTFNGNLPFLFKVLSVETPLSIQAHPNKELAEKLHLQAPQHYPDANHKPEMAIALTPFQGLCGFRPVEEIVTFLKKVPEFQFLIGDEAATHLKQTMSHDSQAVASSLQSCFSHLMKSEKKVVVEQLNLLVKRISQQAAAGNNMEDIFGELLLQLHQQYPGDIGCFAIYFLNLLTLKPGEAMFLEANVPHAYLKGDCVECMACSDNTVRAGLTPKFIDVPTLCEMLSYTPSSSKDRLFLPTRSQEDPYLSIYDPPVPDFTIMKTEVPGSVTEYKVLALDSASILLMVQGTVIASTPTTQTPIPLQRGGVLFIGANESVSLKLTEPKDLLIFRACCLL
# TEST: inhibitors of human PMI, primary screen, biochemical, fluorescence intensity, coupled assay (AID 1209);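 also: plate controls were DMSO vehicle for no effect and wells lacking substrate for full effect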
# STATED_CONDITIONS: purified PMI enzyme, at 20 µM, active compounds read high
The campaign covered roughly 190,000 compounds. About 810 (0.43%) were called active. The full list was thinned out, with actives kept by preference.
Overview of recorded inhibition for various compounds
Response body: numeric value in %, unit text excluded.

Worked examples follow.
[[record]]
compound = "COC(=O)C1CCN(C2CC(=O)N(c3cc(C)cc(C)c3)C2=O)CC1 (configuration not stated)"
study_target = "Mannose-6-phosphate isomerase (Homo sapiens) (UniProt P34949)"
property_label = "inhibition"
units_of_measure = "%"
readout_value = -1.3

[[record]]
compound = "CCOCCCNC(=O)c1ccc(N2CCOCC2)c(NS(=O)(=O)c2ccc(OC)cc2)c1"
study_target = "Mannose-6-phosphate isomerase (Homo sapiens) (UniProt P34949)"
property_label = "inhibition"
units_of_measure = "%"
readout_value = -1.6


// inhibition value for Cn1cc2ccc(N)cc2n1 : 72.9

// inhibition value for Cn1cc2cc(NC(N)=S)ccc2n1 : 1.7

// inhibition value for CCNC(=O)CC1SC(=Nc2ccc(C)cc2)NC1=O (configuration not stated) : -4.7

// inhibition value for CC(C)c1ccc(O)c(NC(=S)NC(=O)CCc2ccccc2)c1 : 12.8

// inhibition value for CC(C)(Cl)C1Cc2cc3ccc(=O)oc3cc2O1 (configuration not stated) : 6.2

// inhibition value for COc1ccc(O)c(/C=N/n2c(-c3ccco3)csc2=Nc2cccnc2)c1 : 11.8

// inhibition value for CC(NC(=O)NC12CC3CC(CC(C3)C1)C2)c1ccc2c(c1)OCO2 (configuration not stated) : -7.3

----------
# STUDY_TARGET: Mannose-6-phosphate isomerase (Homo sapiens) (UniProt P34949)
# TEST: inhibitors of human PMI, primary screen, biochemical, fluorescence intensity, coupled assay (AID 1209)
# STATED_CONDITIONS: purified PMI enzyme, at 20 µM
Out of some 190,000 compounds screened, about 810 (0.43%) were called active. Rule as the data show it: active = inhibition above about 50%; inactive = the rest. The list comes from a sample in which actives are over-represented; it also holds close analogues and randomly drawn compounds.
I would appreciate it if you answered using one of these outcomes: active, inactive

Solved cases (2 shown):
[[record]]
compound = "Oc1c(C(c2ccccn2)N2CCOCC2)ccc2cccnc12 (configuration not stated)"
study_target = "Mannose-6-phosphate isomerase (Homo sapiens) (UniProt P34949)"
class_name = "active"

[[record]]
compound = "c1ccc(Cc2nn3c(COc4ccccc4)nnc3s2)cc1"
study_target = "Mannose-6-phosphate isomerase (Homo sapiens) (UniProt P34949)"
class_name = "active"


Ask | Each compound tested received a call. Report the one for CC(=O)c1ccc2c3c(cccc13)C(=O)N(c1c(C)nn(C)c1C)C2=O .
Reply | active

Ask | Each compound tested received a call. Report the one for CC(C)OC(=O)c1cccc(C(=O)O)n1 .
Reply | inactive

Ask | Each compound tested received a call. Report the one for CCc1c(C)sc(NC(=O)Cn2nc(C(F)(F)F)c3c2CCCC3)c1C#N .
Reply | inactive

Ask | Each compound tested received a call. Report the one for COCCNC(=O)C(c1cccs1)N(C(=O)Cn1nnc2ccccc21)c1cccc(C(C)=O)c1 (configuration not stated) .
Reply | inactive

Ask | Each compound tested received a call. Report the one for COc1cccc(CNc2ccc(F)c(Cl)c2)c1OC .
Reply | inactive

Ask | Each compound tested received a call. Report the one for COc1ccc(-c2noc(CN(C(=O)C(C)(C)C)C(C)C)n2)cc1 .
Reply | inactive

Ask | Each compound tested received a call. Report the one for CCN(CC)C(=O)c1ccc(/C=C/c2c[nH]c3ccccc23)[n+](C)c1 .
Reply | inactive

Ask | Each compound tested received a call. Report the one for CCCn1c(CNC(=O)c2ccccc2)nc2ccccc21 .
Reply | inactive

----------
# STUDY_TARGET: Mannose-6-phosphate isomerase (Homo sapiens) (UniProt P34949)
# TEST: inhibitors of human PMI, primary screen, biochemical, fluorescence intensity, coupled assay (AID 1209)
# STATED_CONDITIONS: purified PMI enzyme, at 20 µM, active compounds read high
Among all 190,000 compounds or so, about 810 (0.43%) were called active. This is one part of a sample in which actives are shown more often than they occur.
PROPERTY_LABEL: inhibition (%)
Response body: numeric value in %, unit text excluded.

[[record]]
compound = "CC(=O)c1nnn(-c2ccc([N+](=O)[O-])cc2C)c1C"
study_target = "Mannose-6-phosphate isomerase (Homo sapiens) (UniProt P34949)"
units_of_measure = "%"
readout_value = -15.2


Please turn your attention to the following entry.
Query FC(F)(F)c1ccccc1NC(=S)Nc1cccc2cnccc12 on Mannose-6-phosphate isomerase (Homo sapiens) (UniProt P34949); inhibition returned: 5.4

----------
# STUDY_TARGET: Mannose-6-phosphate isomerase (Homo sapiens) (UniProt P34949)
# TEST: inhibitors of human PMI, primary screen, biochemical, fluorescence intensity, coupled assay (AID 1209);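 also: plate controls were DMSO vehicle for no effect and wells lacking substrate for full effect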
# STATED_CONDITIONS: purified PMI enzyme, at 20 µM, active compounds read high
The whole screen tested about 190,000 compounds, of which about 810 (0.43%) were called active. Shown is part of a subset that was picked to be rich in actives.
Overview of recorded inhibition for various molecules
Response body: numeric value in %, unit text excluded.

Worked examples follow.
[[record]]
molecule = "O=C1C(=O)c2c(C(=O)c3ccccc3)coc2-c2ccccc21"
property_label = "inhibition"
readout_value = 73.4

[[record]]
molecule = "O=C1c2ccccc2C(=O)c2c1oc(C(F)(F)F)c2C(=O)c1ccccc1"
property_label = "inhibition"
readout_value = -31.5

[[record]]
molecule = "CCn1c(CNC(=O)Cc2ccc(OC)cc2)nnc1SCCOc1ccccc1"
property_label = "inhibition"
readout_value = -11.5


Query COC(=O)[C@H](CC(C)C)NC(=O)CCc1nnc(COc2ccccc2)o1 on Mannose-6-phosphate isomerase (Homo sapiens) (UniProt P34949); inhibition returned: -1.7

Query Cc1cc(C)n(-c2ccc(C(=O)Nc3cccc(S(=O)(=O)N(C)C)c3)cc2)n1 on Mannose-6-phosphate isomerase (Homo sapiens) (UniProt P34949); inhibition returned: 5.5

Query Cc1cc2c(cc1C)CSC(c1c(O)ccc3ccccc13)SC2 on Mannose-6-phosphate isomerase (Homo sapiens) (UniProt P34949); inhibition returned: 21.9

Query Nn1c(SCC(=O)Nc2ccc3c(c2)OCO3)nnc1C1CC1 on Mannose-6-phosphate isomerase (Homo sapiens) (UniProt P34949); inhibition returned: 5.7

Query O=c1oc2cc(OCc3ccc(C(F)(F)F)cc3)ccc2cc1-c1ccccn1 on Mannose-6-phosphate isomerase (Homo sapiens) (UniProt P34949); inhibition returned: -7

Query COc1ccc(C(=O)c2coc(-c3ccccc3C(=O)O)c2C(=O)O)cc1 on Mannose-6-phosphate isomerase (Homo sapiens) (UniProt P34949); inhibition returned: -8.2

Query COc1ccc(C2(c3ccc(O)cc3O)CC(c3ccccc3Cl)NC(=S)N2)cc1 (stereo not drawn) on Mannose-6-phosphate isomerase (Homo sapiens) (UniProt P34949); inhibition returned: 11.9

Query Cc1ccc(N2CCN(CC(O)COc3ccc([N+](=O)[O-])cc3)CC2)cc1 (stereo not drawn) on Mannose-6-phosphate isomerase (Homo sapiens) (UniProt P34949); inhibition returned: -2

Query CSC1=C(C#N)C(c2ccc3c(c2)OCO3)C2=C(CCCC2=O)N1 (stereo not drawn) on Mannose-6-phosphate isomerase (Homo sapiens) (UniProt P34949); inhibition returned: -3

----------
# STUDY_TARGET: Mannose-6-phosphate isomerase (Homo sapiens) (UniProt P34949)
# TEST: inhibitors of human PMI, primary screen, biochemical, fluorescence intensity, coupled assay (AID 1209);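 also: plate controls were DMSO vehicle for no effect and wells lacking substrate for full effect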
# STATED_CONDITIONS: purified PMI enzyme, at 20 µM
Hit rate of the full screen: of about 190,000 compounds, about 810 (0.43%) were called active. Rule as the data show it: active = inhibition above about 50%; inactive = the rest. The entries come from a sample that favours actives as a whole.
I would appreciate it if you answered using one of these outcomes: Y (active), N (inactive)

Ask | Each compound tested received a call. Report the one for COCCN(CCOC)c1nc(N)c2c(N)nc3c(c2c1C#N)CC(=O)N3Cc1ccc(Cl)cc1 .
Reply | N

Ask | Each compound tested received a call. Report the one for O=C(CCc1nnc(C2CCCCC2)o1)NCc1ccc(F)c(F)c1 .
Reply | N

----------
# STUDY_TARGET: Mannose-6-phosphate isomerase (Homo sapiens)
# TEST: inhibitors of human PMI, primary screen, biochemical, fluorescence intensity, coupled assay (AID 1209);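 also: plate controls were DMSO vehicle for no effect and wells lacking substrate for full effect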
# STATED_CONDITIONS: purified PMI enzyme, at 20 µM, active compounds read high
Screen size: about 190,000 compounds; about 810 (0.43%) were called active. Many of the other results were omitted from the sample, so actives are more common in it than they were.
Binary classification by inhibition, with 20% as an inclusive lower bound for label 1; all other cases are label 0.

Ask | Is the recorded value of inhibition equal to or greater than 20% for this compound? COc1ccc2c(c1)-c1nc(/N=C/c3ccc(O)cc3)sc1CC2
Reply | label 1
